Please go through the items and note down their diameter of the inhibition zone (DIZ).
test system: Escherichia coli; experiment: Antibacterial activity against Escherichia coli NCIM 2065 after 18 hr by disk diffusion method; format: functional; note: test concentration or dose not given here
Write your answer as a measured quantity: the number, then the unit.

// returns reported diameter of the inhibition zone (DIZ) for input "O=C(NN=C(c1ccccc1)c1ccccc1)Nn1c(-c2ccccc2)nc2ccccc2c1=O"
21 mm

// returns reported diameter of the inhibition zone (DIZ) for input "O=C(O)c1cn(C2CC2)c2cc(N3CCNCC3)c(F)cc2c1=O"
16 mm

// returns reported diameter of the inhibition zone (DIZ) for input "COc1cc(/C=N/NC(=O)Nn2c(-c3ccccc3)nc3ccccc3c2=O)ccc1O"
19 mm

// returns reported diameter of the inhibition zone (DIZ) for input "CN(C)c1ccc(/C=N/NC(=O)Nn2c(-c3ccccc3)nc3ccccc3c2=O)cc1"
19 mm

// returns reported diameter of the inhibition zone (DIZ) for input CC12CCC(C/C1=N/NC(=O)Nn1c(-c3ccccc3)nc3ccccc3c1=O)C2(C)C (stereo unspecified)
18 mm

// returns reported diameter of the inhibition zone (DIZ) for input "O=C(N/N=C1/C(=O)Nc2ccccc21)Nn1c(-c2ccccc2)nc2ccccc2c1=O"
21 mm
